Measured viability at 28.5 h, 10 µM by item
# assay.details: in vitro
# cond: human, hela cells, % viability

Answered cases to consult:
| compound | viability at 28.5 h, 10 µM |
| --- | --- |
| CC(C)NC(=O)C1CC2CCC1(C)C[C@]21NC(=O)c2ccccc2N1 (stereo partly shown) [CBK284444] | 88.7% |
| O=C(O)c1cc(S(=O)(=O)Nc2cc(-c3ccco3)n[nH]2)c(F)cc1Cl [CBK067292] | 92.6% |
| COc1ccc(-c2nnc(S)n2/N=C\c2ccc(C(=O)O)cc2)cc1 [CBK264419] | 92.4% |

The reported viability at 28.5 h, 10 µM of the compound O=C(c1c(F)cccc1F)N1CCN(c2ncccn2)CC1 [CBK144517] was 89.3%

* * *

Measured viability at 28.5 h, 10 µM by item
# assay.details: in vitro
# cond: human, hela cells, % viability
Give the value, in units of %, as a plain number.

| compound | readout.unit | value.reported |
| --- | --- | --- |
| CN(Cc1nc2c(s1)CCCC2)C(=O)COc1ncnc2ccccc12 [CBK307151] | % | 90.7 |
| COc1ccc(C(=O)CCC(=O)Nc2cccnc2)c(OC)c1 [CBK266923] | % | 105 |

Consider the record given below.
The reported viability at 28.5 h, 10 µM of the compound CC(C)NC(=O)/C(=C/c1c[nH]c2ncccc12)c1ccccc1 [CBK115357] was 95.8

* * *

# assay.details: in vitro
# Parameters: Viability of infected HeLa host cells, resazurin conversion, bulk resorufin fluorescence relative to DMSO
# cond: human, hela cells; bulk resorufin, mean of 3
Measured viability at 28.5 h, 1 µM by item
Give the value, in units of %, as a plain number.

The reported viability at 28.5 h, 1 µM of the compound Oc1ccccc1Nc1nc(NC2CCCC2)c2ccccc2n1 [c49e] was 90.1

The reported viability at 28.5 h, 1 µM of the compound O=C(N/N=C\c1ccc([N+](=O)[O-])o1)c1nc(-c2ccccc2)cc(-c2ccccc2)n1 [c3e] was 90.7

The reported viability at 28.5 h, 1 µM of the compound O=C(NCCCn1ccnc1)c1cc(-c2cccc(Br)c2)nc2ccccc12 [c50e] was 89.1

The reported viability at 28.5 h, 1 µM of the compound c1c(C2CC2)[nH]c2nc(N3CCCC3)nc(N3CCCC3)c12 [c7e] was 87.4

* * *

# assay.details: in vitro
# cond: human, hela cells, % viability
Measured viability at 28.5 h, 10 µM by item
Give the value, in units of %, as a plain number.

Answered cases to consult:
| molecule | readout.unit | viability at 28.5 h, 10 µM |
| --- | --- | --- |
| Cc1nn(CC(=O)N2CCCC(C)C2)c(=O)c2cc3occc3n12 (stereo not drawn) | % | 91.6 |
| Cc1ccc(Cn2cnc3c(nnn3-c3ccc(C)cc3)c2=O)cc1 | % | 102 |
| NC(=O)c1c(NC(=O)COc2ccc(Cl)cc2)sc2c1CCC2 | % | 91 |
| Cn1c(=O)c2c(nc(N3CCOCC3)n2CCC/N=C2\CCCCN2)n(C)c1=O | % | 105 |
| C[C@H](NC(=O)OC1CC[C@@]2(c3ccccc3)CCN(C)[C@H]2C1)c1cccc2ccccc12 (stereo partly drawn) | % | 111 |
| CCCCCn1c(=O)c(C(=O)NCc2ccc(Cl)cc2)c(O)c2ccccc21 | % | 117 |
| CCn1cc([C@H]2CN(C)C[C@@H]2N(C)C)c2ccccc21 | % | 108 |
| Cc1cc(CN2CC3CCCN3C[C@@H]2C)c(C)n1CC1CCCO1 (stereo partly drawn) | % | 82 |
| O=C(c1ccc(F)cc1)N1CCN(c2ccc(Nc3ccncc3)nn2)CC1 | % | 99.7 |
| CC(=O)NC(NS(=O)(=O)c1ccccc1)(C(F)(F)F)C(F)(F)F | % | 98.4 |

The reported viability at 28.5 h, 10 µM of the molecule Cc1c(C(=O)N2CCCCC2CN2CCOCC2)[nH]c2c(F)cccc12 (stereo not drawn) was 105

The reported viability at 28.5 h, 10 µM of the molecule `Cc1cc(Cl)ccc1CNC(=O)c1ccccc1Nc1cccc(C(F)(F)F)c1` was 97.3

* * *

# assay.details: in vitro
# cond: human, hela cells, % viability
reported.endpoint: viability at 28.5 h, 10 µM (%)
Give the value, in units of %, as a plain number.

| molecule | viability at 28.5 h, 10 µM / % |
| --- | --- |
| Cc1ccc(NC(=O)Cn2nc(C)c([N+](=O)[O-])c2C)cc1Cl | 98.5 |
| CN(C)/N=C\c1cccc(O)c1 | 95.2 |
| COc1ccc(-c2cc(C(=O)Nc3nccs3)cnc2-c2ccc(Cl)cc2)cc1 | 87.4 |
| CN1CCC2(CC1)NCCc1c2ccn1S(=O)(=O)c1ccc(I)cc1 [CBK061945C] | 111 |
| COc1nccnc1-c1cc2ccccc2s1 | 87.7 |
| O=C(O)c1cccc(-c2ccc(/C=C3\SC(=S)N(Cc4ccco4)C3=O)o2)c1 | 98.3 |
| COc1ccccc1-c1nccnc1OCCc1ccc(NC(C)=O)cc1 | 115 |
| CCN(CC(=O)NCc1ccncc1)S(=O)(=O)c1ccccc1 | 88.7 |

The reported viability at 28.5 h, 10 µM of the molecule `O=c1[nH]c2ncc(-c3ccsc3)nc2n1CC1CCOCC1` was 86.3

The reported viability at 28.5 h, 10 µM of the molecule `CC(=O)N1CC(C(=O)Nc2nc3c(C)cc(C)cc3s2)C1` was 95.9

The reported viability at 28.5 h, 10 µM of the molecule `Cn1cc(C(c2ccccc2OCC(=O)O)c2cn(C)c3ccccc23)c2ccccc21` was 112

The reported viability at 28.5 h, 10 µM of the molecule O=S(=O)(NCC(O)Cn1c2ccc(Cl)cc2c2cc(Cl)ccc21)c1ccccc1 (centres unmarked) was 88.6

The reported viability at 28.5 h, 10 µM of the molecule `O=C(O)CCC(=O)N1CCCc2ccccc21` was 92.6

The reported viability at 28.5 h, 10 µM of the molecule `O=C(O)c1ccccc1Nc1c2ccccc2nc2ccccc12` was 96

The reported viability at 28.5 h, 10 µM of the molecule `CCN(Cc1ccncc1)S(=O)(=O)c1ccc(Cl)c(Cl)c1` was 96.2

The reported viability at 28.5 h, 10 µM of the molecule O=C1COc2ccccc2C/C=C/CC2(CCCN(C(=O)CCN3CCCC3)C2)CN1 (centres unmarked) was 102

The reported viability at 28.5 h, 10 µM of the molecule O=C(NCC1CCCO1)c1ccccc1Sc1ccc([N+](=O)[O-])cc1Cl (centres unmarked) was 88.8

The reported viability at 28.5 h, 10 µM of the molecule `O=C(NC[C@H]1CC[C@H](c2nnc(-c3ccsc3)o2)CC1)C1CC1` was 85.5

* * *

# assay.details: in vitro
# cond: human, hela cells, % viability
1.0 if viability at 28.5 h, 10 µM is below 90%. 0.0 if not; exact matches included in 0.0.

Here are 4 molecules together with their reported answers.
| molecule | class.label |
| --- | --- |
| CCCCC(c1ccc(Cl)cc1)N(CCN(C)C)c1ccccn1 (centres unmarked) [CBK012315F] | 1.0 |
| c1ccc(COc2ccc(-c3cc(Nc4ccc5[nH]ccc5c4)ncn3)cc2)cc1 [CBK090857] | 0.0 |
| Cc1ccc2nsnc2c1S(=O)(=O)Nc1cccc2cccnc12 [CBK267051] | 1.0 |
| Cc1sc2nc(SCc3nc4ccccc4[nH]3)n(-c3ccc(Cl)c(Cl)c3)c(=O)c2c1C [CBK264594] | 0.0 |

State whether 90% exceeds viability at 28.5 h, 10 µM recorded for CS(=O)(=O)Nc1cc(-c2noc([C@@H]3CCCN3Cc3ccccn3)n2)ccn1 [CBK288885] . 1.0

State whether 90% exceeds viability at 28.5 h, 10 µM recorded for Cc1ccn2c(-c3csc(Nc4ccc(C(=O)O)cc4)n3)c(C)nc2c1 [CBK263283B] . 0.0

State whether 90% exceeds viability at 28.5 h, 10 µM recorded for c1ccc(CC2CCN(Cc3cccnc3)CC2)cc1 [CBK126381] . 0.0

State whether 90% exceeds viability at 28.5 h, 10 µM recorded for Cc1cc(C)n(C(=O)c2ccc([N+](=O)[O-])cc2N)n1 [CBK266491] . 0.0

* * *

# assay.details: in vitro
# cond: human, hela cells, % viability
reported.endpoint: viability at 28.5 h, 10 µM (%)
Give the value, in units of %, as a plain number.

Answered cases to consult:
| compound | viability at 28.5 h, 10 µM [%] |
| --- | --- |
| Nc1ncncc1-c1noc([C@@H]2CCCN2C2CCOCC2)n1 | 90.7 |
| CC(C)(C)OC(=O)N1CCC[C@@H](CNC(=O)c2cccs2)C1 | 104 |
| COc1ccc(Cl)cc1CN(C)C(=O)c1ccc[nH]c1=O | 90.6 |
| Cc1ccc2c(c1)c(C(=O)N1CCn3nc(CO)cc3C1)nn2C | 104 |
| O=c1[nH]c(=O)c2cc(S(=O)(=O)Nc3cccc(CCc4ccccn4)c3)ccc2[nH]1 | 97.9 |

Consider the record given below.
The reported viability at 28.5 h, 10 µM of the compound O=C(C1CC2C=CC1C21CC1)N1CCCC(c2nc3ccccc3[nH]2)C1 (stereo not drawn) was 91.4
